# tested.on: human NaV 1.8 (Homo sapiens, UniProt Q9Y5Y9)
# Sequence (Q9Y5Y9 whole entry, looked up): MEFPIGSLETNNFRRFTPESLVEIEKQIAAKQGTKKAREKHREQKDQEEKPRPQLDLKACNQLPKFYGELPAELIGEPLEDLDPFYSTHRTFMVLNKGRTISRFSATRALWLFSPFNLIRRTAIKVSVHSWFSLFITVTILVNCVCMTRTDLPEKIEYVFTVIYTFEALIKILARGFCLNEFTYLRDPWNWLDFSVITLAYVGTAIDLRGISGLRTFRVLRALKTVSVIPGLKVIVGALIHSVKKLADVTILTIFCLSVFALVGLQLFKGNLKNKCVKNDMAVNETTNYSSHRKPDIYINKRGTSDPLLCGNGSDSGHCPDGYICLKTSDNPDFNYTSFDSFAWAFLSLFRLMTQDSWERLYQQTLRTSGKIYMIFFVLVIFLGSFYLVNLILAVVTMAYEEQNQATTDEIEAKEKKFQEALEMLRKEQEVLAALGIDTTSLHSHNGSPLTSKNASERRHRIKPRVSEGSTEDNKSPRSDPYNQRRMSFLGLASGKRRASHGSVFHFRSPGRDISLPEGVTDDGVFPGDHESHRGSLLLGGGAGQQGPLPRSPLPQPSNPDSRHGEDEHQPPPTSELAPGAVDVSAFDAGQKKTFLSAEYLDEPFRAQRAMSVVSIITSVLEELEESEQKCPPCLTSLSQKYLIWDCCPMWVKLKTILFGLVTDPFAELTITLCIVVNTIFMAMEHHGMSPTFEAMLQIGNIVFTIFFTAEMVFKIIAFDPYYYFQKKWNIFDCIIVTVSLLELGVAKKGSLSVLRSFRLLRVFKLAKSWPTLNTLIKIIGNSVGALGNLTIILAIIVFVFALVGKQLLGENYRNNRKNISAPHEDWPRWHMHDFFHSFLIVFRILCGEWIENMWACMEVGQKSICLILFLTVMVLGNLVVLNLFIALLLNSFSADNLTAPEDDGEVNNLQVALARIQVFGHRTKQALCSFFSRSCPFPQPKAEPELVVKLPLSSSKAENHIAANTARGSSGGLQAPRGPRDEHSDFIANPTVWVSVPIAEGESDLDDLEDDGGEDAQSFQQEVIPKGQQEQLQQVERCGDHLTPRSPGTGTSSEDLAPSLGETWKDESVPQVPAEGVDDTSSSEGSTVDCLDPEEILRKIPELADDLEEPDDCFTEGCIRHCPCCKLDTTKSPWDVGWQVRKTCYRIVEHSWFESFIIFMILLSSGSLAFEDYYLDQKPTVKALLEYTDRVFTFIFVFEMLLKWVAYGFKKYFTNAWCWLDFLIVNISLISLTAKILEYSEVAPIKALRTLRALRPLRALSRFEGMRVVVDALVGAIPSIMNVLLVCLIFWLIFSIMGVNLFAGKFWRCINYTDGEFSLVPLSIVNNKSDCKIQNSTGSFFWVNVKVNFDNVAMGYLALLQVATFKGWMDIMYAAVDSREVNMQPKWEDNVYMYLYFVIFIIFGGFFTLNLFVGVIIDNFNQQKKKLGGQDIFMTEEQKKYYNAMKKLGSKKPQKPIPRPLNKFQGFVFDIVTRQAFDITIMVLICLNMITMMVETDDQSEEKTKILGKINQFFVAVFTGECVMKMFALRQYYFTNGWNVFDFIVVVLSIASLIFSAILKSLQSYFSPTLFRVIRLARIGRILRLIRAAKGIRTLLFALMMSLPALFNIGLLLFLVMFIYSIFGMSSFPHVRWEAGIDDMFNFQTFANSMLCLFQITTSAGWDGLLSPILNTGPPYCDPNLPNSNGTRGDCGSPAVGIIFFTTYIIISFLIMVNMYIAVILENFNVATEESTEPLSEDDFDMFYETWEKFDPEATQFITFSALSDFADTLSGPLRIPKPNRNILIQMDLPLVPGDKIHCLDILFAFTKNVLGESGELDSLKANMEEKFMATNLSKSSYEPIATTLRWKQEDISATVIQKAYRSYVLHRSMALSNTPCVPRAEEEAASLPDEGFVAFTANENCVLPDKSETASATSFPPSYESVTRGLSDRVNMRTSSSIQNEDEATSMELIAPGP
# test: E-VIPR assay for detecting and measuring NaV inhibition properties
# Format: cell-based
# condition.info: E-VIPR assay conducted in the presence of human serum; HEK cells expressing truncated human NaV 1.8; read-out: IC50
readout: IC50 (µM)

COc1c(Oc2cc(C(F)(F)F)cc(C)c2C(=O)Nc2ccnc(C(N)=O)c2)ccc(F)c1F [Compound 189]; 0.17
COc1cc(Oc2ccc(F)c(F)c2C)c(C(=O)Nc2ccnc(C(N)=O)c2)c(F)c1C(F)(F)F [Compound 348]; 0.02

(1) COc1c(C(F)(F)F)ccc(Oc2ccc(F)cc2C)c1C(=O)Nc1ccnc(C(N)=O)c1 [Compound 64]
(2) NC(=O)c1cc(NC(=O)c2c(Oc3ccc(OC(F)(F)F)cc3O)ccc(C(F)(F)F)c2F)cc[n+]1[O-] [Compound 249]
(3) NC(=O)c1ccc(NC(=O)c2c(Oc3ccc(F)cc3Cl)ccc(C(F)(F)F)c2F)cn1 [Compound 176]
(4) COc1c(Oc2cc(Cl)c(C)c(F)c2C(=O)Nc2ccnc(C(N)=O)c2)ccc(OC(F)(F)F)c1F [Compound 309]
Enquiry: Falling order of IC50, please. Output spec: a listing of the labels in the requested order.
Return: 2, 3, 1, 4
